test: background-corrected fluorescence of 3'-dye-labeled ssDNA relative to brightest sequence (3'-GCGCG) (fraction); higher = brighter dye fluorescence (less quenching); settings: dye: Cy3 (3' terminal)
For each entry below, report its background-corrected fluorescence value.
Give bare numbers.

Examples with their reported background-corrected fluorescence follow.
- residueSequence: "TTTTTTGCTGATCATGCTCATTTTTTTTTTTTTTTACGAG [GAGCA]"
  background-corrected fluorescence: 0.62
- residueSequence: "TTTTTTCATCATCATCAGCATTTTTTTTTTTTTTTGGGGT"
  background-corrected fluorescence: 0.741
- residueSequence: "TTTTTTGATGATGCTGCTGCTTTTTTTTTTTTTTTCCAAA [AAACC]"
  background-corrected fluorescence: 0.559
- residueSequence: "TTTTTGCATGATCATCATGATTTTTTTTTTTTTTTTCGGC [CGGCT]"
  background-corrected fluorescence: 0.546
- residueSequence: "TTTTTGCATCAGCATGCGCATTTTTTTTTTTTTTTTGTAT [TATGT]"
  background-corrected fluorescence: 0.53

Items follow; give background-corrected fluorescence for each.
1. TTTTTTGCTGAGCATGCGCATTTTTTTTTTTTTTTACTAT [TATCA]
2. TTTTTTGCGCATCAGCATGCTTTTTTTTTTTTTTTATGTA

[0.531, 0.549]

Items follow; give background-corrected fluorescence for each.
1. TTTTTTCATCATCAGCATGATTTTTTTTTTTTTTTGGGTC [CTGGG]
2. TTTTTGCATGATGATCATGATTTTTTTTTTTTTTTTCCGC [CGCCT]
3. TTTTTTCATGCGCATCAGCATTTTTTTTTTTTTTTGATGT [TGTAG]

1: 0.511; 2: 0.504; 3: 0.653

====

assay: background-corrected fluorescence of 3'-dye-labeled ssDNA relative to brightest sequence (3'-GCGCG) (fraction); higher = brighter dye fluorescence (less quenching); details: dye: Cy3 (3' terminal)
readoutType: background-corrected fluorescence
One number for each entry.

Examples with their reported background-corrected fluorescence follow.
- residueSequence: "TTTTTTGATGCGCATCATGATTTTTTTTTTTTTTTCATGC [CGTAC]"
  background-corrected fluorescence: 0.536
- residueSequence: "TTTTTGCATGATGATGATCATTTTTTTTTTTTTTTTCCCG [GCCCT]"
  background-corrected fluorescence: 0.509
- residueSequence: "TTTTTTGCTGCTGATCAGCATTTTTTTTTTTTTTTAACGT [TGCAA]"
  background-corrected fluorescence: 0.606

Items follow; give background-corrected fluorescence for each.
1. TTTTTGCATGCGCAGCATGCTTTTTTTTTTTTTTTTATTA [ATTAT]
2. TTTTTTGCTCAGCATCAGCATTTTTTTTTTTTTTTAGTGT [TGTGA]
3. TTTTTTCATGATGATGATCATTTTTTTTTTTTTTTGCCCG
4. TTTTTTCATCATGCTGCTGCTTTTTTTTTTTTTTTGGAAA [AAAGG]
5. TTTTTTGATGCGCAGCAGCATTTTTTTTTTTTTTTCATTT [TTTAC]
6. TTTTTTGCTGATGCTGATGATTTTTTTTTTTTTTTACACC [CCACA]
7. TTTTTGCATCATCAGCATGCTTTTTTTTTTTTTTTTGGTA [ATGGT]

1. 0.545
2. 0.572
3. 0.488
4. 0.642
5. 0.523
6. 0.369
7. 0.609

====

test: background-corrected fluorescence of 3'-dye-labeled ssDNA relative to brightest sequence (3'-GCGCG) (fraction); higher = brighter dye fluorescence (less quenching); details: dye: Cy3 (3' terminal)
// bucketize background-corrected fluorescence: one = under 0.5, two = from 0.5 up to 0.6, three = 0.6 and over

- residueSequence: "TTTTTTGATGATGCTGATGATTTTTTTTTTTTTTTCCACC"
  assignedLabel: "one"

Sort TTTTTTCATCATCATGCTGATTTTTTTTTTTTTTTGGGAC [CAGGG] into one of the categories. two

Sort TTTTTTGAGCATGCTGCGCATTTTTTTTTTTTTTTCTAAT [TAATC] into one of the categories. two

Sort TTTTTTCAGCAGCAGCAGCATTTTTTTTTTTTTTTGTTTT into one of the categories. two

Sort TTTTTTGCTGCTGCTCATGCTTTTTTTTTTTTTTTAAAGA [AGAAA] into one of the categories. three

Sort TTTTTTCATGCGCATCATGCTTTTTTTTTTTTTTTGATGA [AGTAG] into one of the categories. three

Sort TTTTTTGATGCTGCTGATCATTTTTTTTTTTTTTTCAACG [GCAAC] into one of the categories. two

Sort TTTTTTGATGAGCATGAGCATTTTTTTTTTTTTTTCCTCT [TCTCC] into one of the categories. one

Sort TTTTTTGATGCTGCTGCTGCTTTTTTTTTTTTTTTCAAAA [AAAAC] into one of the categories. two

Sort TTTTTTGATGATCATCATGCTTTTTTTTTTTTTTTCCGGA [AGGCC] into one of the categories. three

Sort TTTTTGCATGCTCATGCTGCTTTTTTTTTTTTTTTTAGAA [AAGAT] into one of the categories. three

Sort TTTTTTCATGCTGCGCATGATTTTTTTTTTTTTTTGAATC [CTAAG] into one of the categories. one

Sort TTTTTTCAGCATGCTGATCATTTTTTTTTTTTTTTGTACG into one of the categories. two

Sort TTTTTTGATGATGCTGCTGATTTTTTTTTTTTTTTCCAAC [CAACC] into one of the categories. one

Sort TTTTTTCATGATCATGCTGATTTTTTTTTTTTTTTGCGAC [CAGCG] into one of the categories. two

Sort TTTTTGCATGCTCAGCATCATTTTTTTTTTTTTTTTAGTG [GTGAT] into one of the categories. two

Sort TTTTTTGAGCATGATCATGATTTTTTTTTTTTTTTCTCGC [CGCTC] into one of the categories. two

Sort TTTTTTGATGATGATGAGCATTTTTTTTTTTTTTTCCCCT into one of the categories. one

Sort TTTTTTGCTGATGATGATGCTTTTTTTTTTTTTTTACCCA into one of the categories. one

Sort TTTTTTGATCATCATCATGATTTTTTTTTTTTTTTCGGGC into one of the categories. two

====

test: background-corrected fluorescence of 3'-dye-labeled ssDNA relative to brightest sequence (3'-GCGCG) (fraction); higher = brighter dye fluorescence (less quenching); conditions: dye: Cy3 (3' terminal)
Classification field: met = background-corrected fluorescence at or over 0.5; not met = background-corrected fluorescence under 0.5.

- residueSequence: "TTTTTTGCTCATGCGCAGCATTTTTTTTTTTTTTTAGATT"
  assignedLabel: "met"

I'd appreciate it if you could say whether TTTTTTCATCATGCTCAGCATTTTTTTTTTTTTTTGGAGT [TGAGG] has background-corrected fluorescence at least equal to 0.5. met

I'd appreciate it if you could say whether TTTTTTGCTGCTCATGCTGCTTTTTTTTTTTTTTTAAGAA has background-corrected fluorescence at least equal to 0.5. met

I'd appreciate it if you could say whether TTTTTTCATGATGCTGCTGCTTTTTTTTTTTTTTTGCAAA [AAACG] has background-corrected fluorescence at least equal to 0.5. met

I'd appreciate it if you could say whether TTTTTTCATGATCATCATGATTTTTTTTTTTTTTTGCGGC [CGGCG] has background-corrected fluorescence at least equal to 0.5. met

I'd appreciate it if you could say whether TTTTTGCAGCATCAGCATCATTTTTTTTTTTTTTTTTGTG [GTGTT] has background-corrected fluorescence at least equal to 0.5. met

I'd appreciate it if you could say whether TTTTTTGATCATGATGATGATTTTTTTTTTTTTTTCGCCC [CCCGC] has background-corrected fluorescence at least equal to 0.5. not met

I'd appreciate it if you could say whether TTTTTGCAGCAGCATGAGCATTTTTTTTTTTTTTTTTTCT [TCTTT] has background-corrected fluorescence at least equal to 0.5. not met

====

test: background-corrected fluorescence of 3'-dye-labeled ssDNA relative to brightest sequence (3'-GCGCG) (fraction); higher = brighter dye fluorescence (less quenching); details: dye: Cy5 (3' terminal)
For each entry below, report its background-corrected fluorescence value.
Give bare numbers.

- residueSequence: "TTTTTTGAGCAGCATGAGCATTTTTTTTTTTTTTTCTTCT"
  val: 0.342
- residueSequence: "TTTTTTCATCATCATGATGCTTTTTTTTTTTTTTTGGGCA [ACGGG]"
  val: 0.505

Items follow; give background-corrected fluorescence for each.
1. TTTTTTCATGCTGCTCATGATTTTTTTTTTTTTTTGAAGC [CGAAG]
2. TTTTTTGATCAGCATGAGCATTTTTTTTTTTTTTTCGTCT [TCTGC]
3. TTTTTGCATGAGCAGCATGCTTTTTTTTTTTTTTTTCTTA [ATTCT]
4. TTTTTTGATGCGCAGCAGCATTTTTTTTTTTTTTTCATTT [TTTAC]

[0.397, 0.36, 0.373, 0.38]
